Please go through the items and note down their MIC.
Test system: Staphylococcus aureus
Assay: Antibacterial activity against methicillin resistant Staphylococcus aureus assessed as inhibition of bacterial growth measured after 24 hrs by turbidity based analysis
Assay type: functional
A bare number is not enough; add the unit after it.

Below are worked cases with known answers.
CC(C)C[C@@H]1NC(=O)[C@H](CCCN)NC(=O)[C@H](C(C)C)NC(=O)[C@H](Cc2ccc(O)cc2)NC(=O)[C@H](CCC(N)=O)NC(=O)[C@H](CCCN)NC(=O)[C@@H](Cc2ccccc2)NC(=O)[C@H](Cc2ccccc2)NC(=O)[C@@H]2CCCN2C(=O)[C@@H](Cc2ccccc2)NC1=O :: 20 µM
CC(C)C[C@@H]1NC(=O)[C@H](CCCN)NC(=O)[C@H](C(C)C)NC(=O)[C@H](Cc2ccc(O)cc2)NC(=O)[C@H](CCCN)NC(=O)[C@H](CCCN)NC(=O)[C@@H](Cc2ccccc2)NC(=O)C(Cc2ccccc2)NC(=O)[C@@H]2CCCN2C(=O)[C@@H](Cc2ccccc2)NC1=O (single isomer, unassigned) :: 5 µM
CC(C)C[C@@H]1NC(=O)[C@H](CCCN)NC(=O)[C@H](CCCN)NC(=O)[C@H](CCCN)NC(=O)[C@H](CCCN)NC(=O)[C@H](CCCN)NC(=O)[C@@H](Cc2ccccc2)NC(=O)[C@H](Cc2ccccc2)NC(=O)[C@@H]2CCCN2C(=O)[C@@H](Cc2ccccc2)NC1=O :: 10 µM

// map `CC(C)C[C@@H]1NC(=O)[C@H](CCCN)NC(=O)[C@H](C(C)C)NC(=O)[C@H](CCCN)NC(=O)[C@H](CCCN)NC(=O)[C@H](CC(N)=O)NC(=O)[C@@H](Cc2ccccc2)NC(=O)[C@H](Cc2ccccc2)NC(=O)[C@@H]2CCCN2C(=O)[C@@H](Cc2ccccc2)NC1=O` to recorded MIC (system: Staphylococcus aureus)
10 µM
